# Tested on: OCI-LY-3
# procedure.summary: 5-day viable cell number and apoptosis (7-AAD exclusion/Annexin V flow cytometry)
# Type: cell-based
# test.parameters: Homo sapiens, OCI-Ly3, 120 h; OCI-LY-3 cells, 5 days
# Procedure: The DLBCL panel includes seven cell lines classified as activated B-cell (ABC) subtype, thirteen cell lines classified as the germinal center B-cell (GCB) subtype, and three cell lines classified as primary mediastinal B-cell lymphoma (PMBL). […] Expressions of CRBN protein and known substrates, Ikaros, Aiolos, and ZFP91 were also evaluated (FIG. 1, panels B and C). […]
metric: EC50 (nM)
Answer with a number only, understood to be in nM.

Value lookup for EC50; key = O=C1CC[C@H](N2C(=O)c3cccc(NCc4ccc(CN5CC(N6CCOCC6)C5)cc4F)c3C2=O)C(=O)N1
0.46

* * *

# Test system: SU-DHL-4
# procedure.summary: 5-day viable cell number and apoptosis (7-AAD exclusion/Annexin V flow cytometry)
# Type: cell-based
# test.parameters: Homo sapiens; SU-DHL-4 cells (Table 3); read-out: IC50
metric: pIC50
Scale note: pIC50 = -log10(concentration in M).

Value lookup for pIC50; key = CC1(C)CCC(CN2CCN(c3ccc(C(=O)NS(=O)(=O)c4ccc(NCC5CCOCC5)c([N+](=O)[O-])c4)c(Oc4cnc5[nH]ccc5c4)c3)CC2)=C(c2ccc(Cl)cc2)C1 [Venetoclax, reference compound]
3.84

Value lookup for pIC50; key = O=C1CC[C@H](N2C(=O)c3cccc(NCc4ccc(CN5CC(N6CCOCC6)C5)cc4F)c3C2=O)C(=O)N1
3.34

Value lookup for pIC50; key = COc1cccc2c1C(=O)c1c(O)c3c(c(O)c1C2=O)C[C@@](O)(C(=O)CO)C[C@@H]3O[C@H]1C[C@H](N)[C@H](O)[C@H](C)O1 [Doxorubicin, reference compound]
6.00

* * *

# Test system: U2932 M-Parental
# procedure.summary: Viable cells/apoptosis in doxorubicin-resistant and matching parental lines
# Type: cell-based
# test.parameters: Homo sapiens, read-out: Doxorubicin IC50
metric: pIC50
Scale note: pIC50 = -log10(concentration in M).

Form entry - test system: U2932 M-Parental; read-out: pIC50; compound: COc1cccc2c1C(=O)c1c(O)c3c(c(O)c1C2=O)C[C@@](O)(C(=O)CO)C[C@@H]3O[C@H]1C[C@H](N)[C@H](O)[C@H](C)O1 [Doxorubicin, reference compound]
8.00

* * *

# Test system: Oci-Ly10 DoxoR
# procedure.summary: Viable cells/apoptosis in doxorubicin-resistant and matching parental lines
# Assay type: cell-based
# test.parameters: Homo sapiens, OCI-Ly10, 120 h; Oci-Ly 10 DoxoR, 5 days; read-out: IC50
metric: IC50 (nM)
Answer with a number only, understood to be in nM.

Value lookup for IC50; key = O=C1CC[C@H](N2C(=O)c3cccc(NCc4ccc(CN5CC(N6CCOCC6)C5)cc4F)c3C2=O)C(=O)N1 [Compound 1]
300

* * *

# Test system: DB
# procedure.summary: 5-day viable cell number and apoptosis (7-AAD exclusion/Annexin V flow cytometry)
# Format: cell-based
# test.parameters: Homo sapiens; DB cells (Table 3)
Task for the reader: assign each of the following molecules its reported IC50.

Form entry - test system: DB; read-out: IC50; molecule: CC1(C)CCC(CN2CCN(c3ccc(C(=O)NS(=O)(=O)c4ccc(NCC5CCOCC5)c([N+](=O)[O-])c4)c(Oc4cnc5[nH]ccc5c4)c3)CC2)=C(c2ccc(Cl)cc2)C1 [Venetoclax, reference compound]
82 µM

Form entry - test system: DB; read-out: IC50; molecule: COc1cccc2c1C(=O)c1c(O)c3c(c(O)c1C2=O)C[C@@](O)(C(=O)CO)C[C@@H]3O[C@H]1C[C@H](N)[C@H](O)[C@H](C)O1 [Doxorubicin, reference compound]
3.8 µM

* * *

# System: WSU-DLCL2 DoxoR
# procedure.summary: Viable cells/apoptosis in doxorubicin-resistant and matching parental lines
# Format: cell-based
# test.parameters: Homo sapiens, WSUDLCL2, 120 h, 5 days, read-out: IC50
metric: pIC50
Scale note: pIC50 = -log10(concentration in M).

Value lookup for pIC50; key = O=C1CC[C@H](N2C(=O)c3cccc(NCc4ccc(CN5CC(N6CCOCC6)C5)cc4F)c3C2=O)C(=O)N1
7.00

* * *

# Test system: SU-DHL-16
# procedure.summary: 5-day viable cell number and apoptosis (7-AAD exclusion/Annexin V flow cytometry)
# Format: cell-based
# test.parameters: Homo sapiens, 120 h; SU-DHL-16 cells, 5 days; read-out: % Viable Cells IC50
metric: IC50 (µM)
Answer with a number only, understood to be in µM.

Form entry - test system: SU-DHL-16; read-out: IC50; compound: O=C1CC[C@H](N2C(=O)c3cccc(NCc4ccc(CN5CC(N6CCOCC6)C5)cc4F)c3C2=O)C(=O)N1
0.12

* * *

# Test system: OCI-LY-7
# procedure.summary: 5-day viable cell number and apoptosis (7-AAD exclusion/Annexin V flow cytometry)
# Assay type: cell-based
# test.parameters: Homo sapiens, OCI-Ly7; OCI-LY-7 cells (Table 3); read-out: IC50
metric: IC50
Give the value; after it, write the unit.

Value lookup for IC50; key = CC1(C)CCC(CN2CCN(c3ccc(C(=O)NS(=O)(=O)c4ccc(NCC5CCOCC5)c([N+](=O)[O-])c4)c(Oc4cnc5[nH]ccc5c4)c3)CC2)=C(c2ccc(Cl)cc2)C1 [Venetoclax, reference compound]
1010 µM

Value lookup for IC50; key = COc1cccc2c1C(=O)c1c(O)c3c(c(O)c1C2=O)C[C@@](O)(C(=O)CO)C[C@@H]3O[C@H]1C[C@H](N)[C@H](O)[C@H](C)O1 [Doxorubicin, reference compound]
5 µM

Value lookup for IC50; key = O=C1CC[C@H](N2C(=O)c3cccc(NCc4ccc(CN5CC(N6CCOCC6)C5)cc4F)c3C2=O)C(=O)N1
62 µM

* * *

# System: WSU-DLCL2
# procedure.summary: 5-day viable cell number and apoptosis (7-AAD exclusion/Annexin V flow cytometry)
# Type: cell-based
# test.parameters: Homo sapiens, WSUDLCL2; WSU-DLCL2 cells (Table 3); read-out: IC50
metric: pIC50
Scale note: pIC50 = -log10(concentration in M).

Value lookup for pIC50; key = O=C1CC[C@H](N2C(=O)c3cccc(NCc4ccc(CN5CC(N6CCOCC6)C5)cc4F)c3C2=O)C(=O)N1
3.76

Value lookup for pIC50; key = CC1(C)CCC(CN2CCN(c3ccc(C(=O)NS(=O)(=O)c4ccc(NCC5CCOCC5)c([N+](=O)[O-])c4)c(Oc4cnc5[nH]ccc5c4)c3)CC2)=C(c2ccc(Cl)cc2)C1 [Venetoclax, reference compound]
3.67

Value lookup for pIC50; key = COc1cccc2c1C(=O)c1c(O)c3c(c(O)c1C2=O)C[C@@](O)(C(=O)CO)C[C@@H]3O[C@H]1C[C@H](N)[C@H](O)[C@H](C)O1 [Doxorubicin, reference compound]
5.82

* * *

# Test system: exhausted T cells
# procedure.summary: SEB-induced T-cell exhaustion restimulation assay, effector cytokine release (MSD)
# Type: cell-based
# test.parameters: T cell restimulation assay; read-out: EC50 for secreted IFNγ
metric: pEC50
Scale note: pEC50 = -log10(concentration in M).

Value lookup for pEC50; key = O=C1CC[C@H](N2C(=O)c3cccc(NCc4ccc(CN5CC(N6CCOCC6)C5)cc4F)c3C2=O)C(=O)N1
8.00

* * *

# System: SU-DHL-4 M-Parental
# procedure.summary: Viable cells/apoptosis in doxorubicin-resistant and matching parental lines
# Assay type: cell-based
# test.parameters: Homo sapiens, read-out: Doxorubicin IC50
# Description: The activity of Compound 1 was also evaluated in cell lines with acquired resistance to doxorubicin (Table 4). […] The growth-inhibitory effect of doxorubicin on parental cells and the corresponding resistant cells was evaluated by measuring the number of viable cells and extent of apoptosis by 7-AAD exclusion and Annexin V staining using flow cytometry. The effects of Compound 1 on the viability of doxorubicin-resistant versus parental cell lines was determined (FIG. 2; Table 5).
metric: pIC50
Scale note: pIC50 = -log10(concentration in M).

Value lookup for pIC50; key = COc1cccc2c1C(=O)c1c(O)c3c(c(O)c1C2=O)C[C@@](O)(C(=O)CO)C[C@@H]3O[C@H]1C[C@H](N)[C@H](O)[C@H](C)O1 [Doxorubicin, reference compound]
8.00

* * *

metric: IC50

Form entry - test system: UniProt:Q96SW2; read-out: IC50; compound: O=C1CC[C@H](N2C(=O)c3cccc(NCc4ccc(CN5CC(N6CCOCC6)C5)cc4F)c3C2=O)C(=O)N1
860 nM

* * *

Task for the reader: assign each of the following compounds its reported pIC50.
# System: KARPAS-1106P
# procedure.summary: 5-day viable cell number and apoptosis (7-AAD exclusion/Annexin V flow cytometry)
# Assay type: cell-based
# test.parameters: Homo sapiens; KARPAS-1106P cells (Table 3); read-out: IC50
Scale note: pIC50 = -log10(concentration in M).

Value lookup for pIC50; key = COc1cccc2c1C(=O)c1c(O)c3c(c(O)c1C2=O)C[C@@](O)(C(=O)CO)C[C@@H]3O[C@H]1C[C@H](N)[C@H](O)[C@H](C)O1 [Doxorubicin, reference compound]
5.77

Value lookup for pIC50; key = CC1(C)CCC(CN2CCN(c3ccc(C(=O)NS(=O)(=O)c4ccc(NCC5CCOCC5)c([N+](=O)[O-])c4)c(Oc4cnc5[nH]ccc5c4)c3)CC2)=C(c2ccc(Cl)cc2)C1 [Venetoclax, reference compound]
3.70

Value lookup for pIC50; key = O=C1CC[C@H](N2C(=O)c3cccc(NCc4ccc(CN5CC(N6CCOCC6)C5)cc4F)c3C2=O)C(=O)N1
3.95
